Recorded growth inhibition for the following compounds
METHOD: NCI Yeast Anticancer Drug Screen. Data for the wt1 strain (AID 149);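 note: 0% = growth of vehicle-treated wt1 cultures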
RECORDED_CONDITIONS: S. cerevisiae wt1 strain (SPY 50644) growth inhibition; at 11.0 µM; active compounds read high
Experimental: Growth inhibition of yeast strains with defined genetic alterations is measured as a screen for potential anti-cancer activity. Selected strains with alterations in DNA damage repair or cell cycle control were exposed to compounds and growth inhibition was measured relative to vehicle treated controls. The strain used in this assay is wt1
About 79,000 compounds went through this panel and 15% of them were active in at least one assay; those are over-represented in the sample as a whole.
State just the number; it will be interpreted in %.

Below, 6 compounds whose answers are already recorded.
- COMPOUND: "COc1ccc(C(=O)C(CN(C)C)CN(C)C)cc1"
  UNITS_LABEL: "%"
  growth inhibition: -4
- COMPOUND: "CC(C)OC(=O)Nc1ccc2nc(-c3cscn3)[nH]c2c1"
  UNITS_LABEL: "%"
  growth inhibition: -1
- COMPOUND: "CC(C)(C)[Si](C)(C)OCC1CCC(n2cnc3c(NC(=O)c4ccccc4)ncnc32)O1 (stereo unspecified)"
  UNITS_LABEL: "%"
  growth inhibition: 0
- COMPOUND: "CN(C)c1ccc(N=Nc2ccncc2)cc1"
  UNITS_LABEL: "%"
  growth inhibition: -1
- COMPOUND: "Cc1ccc(Cl)cc1NC(=O)OCCN(C)C(=O)Nc1cc(Cl)ccc1C"
  UNITS_LABEL: "%"
  growth inhibition: -38
- COMPOUND: "CC(C)CCCC(C)C1CCC2C3CCC4=CC(=O)/C(=C\\O)CC4(C)C3CCC12C (stereo unspecified)"
  UNITS_LABEL: "%"
  growth inhibition: 2

The recorded growth inhibition for Cc1c(C)c(C)c(CSC(=N)N)c(C)c1C is -30

The recorded growth inhibition for CCCC/C([O-])=C1/C(=O)N(c2ccccc2)N=C1C.CCCC/C([O-])=C1/C(=O)N(c2ccccc2)N=C1C.[Cu+2] is -2

The recorded growth inhibition for NNC(=O)CCc1cc2ccccc2c2ccccc12 is 9

The recorded growth inhibition for O=C1C=C(c2ccccc2)OC1(c1ccccc1)N1CCOCC1 (stereo unspecified) is -4

The recorded growth inhibition for COC(=O)NC1C(C)OC(OC2C/C=C(/C)C3C=CC4C(OC5CC(OC6CC(O)C(OC7CC(O)C(OC)C(C)O7)C(C)O6)C(O)C(C)O5)C(C)CC(C)C4C3(C)/C(O)=C3\C(=O)OC4(CC(C)C(CO)=CC4/C=C\2C)C3=O)CC1(C)[N+](=O)[O-] (stereo unspecified) is 20
